Kd reference
- tested_on: T1, serum purified human Complement Factor D (human, UniProt P00746 26-253)
- T1 construct: Serum purified protein flowed over the captured antibodies; also called CFD; human CFD
- method_description: SPR Biacore, antibody on protein A chip, single cycle kinetics, 25 C;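 note: antibodies captured to roughly 70 RU on the protein A surface in HBS-EP+ running buffer, with kinetic constants derived by BIAevaluation fitting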
Provide the reading as a plain figure in nM.

Solved cases below.
INSERT INTO measurements (binder, endpoint, unit_annotation, assay_value) VALUES
  ('54V59D / 101V (antibody, V domains shown, KCD119 TAF variant; full antibody captured on protein A) VH: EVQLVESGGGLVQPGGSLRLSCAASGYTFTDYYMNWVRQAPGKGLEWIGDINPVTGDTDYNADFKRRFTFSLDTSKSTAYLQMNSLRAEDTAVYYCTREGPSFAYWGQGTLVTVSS VL: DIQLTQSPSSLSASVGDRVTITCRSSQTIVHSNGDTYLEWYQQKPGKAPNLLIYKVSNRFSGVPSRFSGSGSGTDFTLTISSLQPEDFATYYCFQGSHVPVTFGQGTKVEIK', 'Kd', 'nM', 0.0371),
  ('KCD119 TAF / KCD119 TAF (antibody, V domains shown, Humanized KCD119; tested as full antibody captured on protein A; also called D19 TAF) VH: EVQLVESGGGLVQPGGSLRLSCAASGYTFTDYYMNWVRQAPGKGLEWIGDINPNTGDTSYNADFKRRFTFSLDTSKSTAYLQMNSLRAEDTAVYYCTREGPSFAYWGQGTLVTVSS VL: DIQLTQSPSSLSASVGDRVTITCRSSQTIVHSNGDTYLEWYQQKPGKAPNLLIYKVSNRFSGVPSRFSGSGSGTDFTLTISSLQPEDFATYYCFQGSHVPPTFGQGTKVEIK', 'Kd', 'nM', 0.113);

Now for the binder whose Kd we want.
Which Kd value is on record for 48V54V59D / 32W60W101V (antibody, V domains shown, KCD119 TAF variant; full antibody captured on protein A) VH: EVQLVESGGGLVQPGGSLRLSCAASGYTFTDYYMNWVRQAPGKGLEWVGDINPVTGDTDYNADFKRRFTFSLDTSKSTAYLQMNSLRAEDTAVYYCTREGPSFAYWGQGTLVTVSS VL: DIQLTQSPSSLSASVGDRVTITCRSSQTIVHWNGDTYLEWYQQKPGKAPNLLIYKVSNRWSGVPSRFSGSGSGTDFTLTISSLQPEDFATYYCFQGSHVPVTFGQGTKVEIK ?
0.0159

Attribution: patent US20180334496A1
